Values from PubChem BioAssay (NCI)

The following molecules are listed with their measured TGI values.
Tested on: RPMI-8226 leukemia
experiment: NCI tumour cell line growth inhibition, 48 h

Query: Consider the molecule COc1ccc(OC)c(C#N)c1C#N (tested in a mixture with another compound) and give its recorded TGI.
Response: > 100 µM

* * *

Tested on: NCI-H522 lung
experiment: NCI tumour cell line growth inhibition, 48 h
The following compounds are listed with their measured TGI values.

Study these solved cases before continuing.
compound=O=[N+]([O-])c1nccn1COCCO testreadout=TGI datavalue="> 100 µM"
compound=C[C@@H](O)CCC(=O)c1ccoc1 testreadout=TGI datavalue="> 100 µM"
compound=OC(CC(CC(O)(C(F)(F)F)C(F)(F)F)=NN=C(CC(O)(C(F)(F)F)C(F)(F)F)CC(O)(C(F)(F)F)C(F)(F)F)(C(F)(F)F)C(F)(F)F testreadout=TGI datavalue="> 10 µM"

Query: Consider the compound c1ccc2nc(N/N=C3\CCCCC3C3CCCCC3)ccc2c1 (centres undefined) and give its recorded TGI.
Response: 20.4 µM

Query: Consider the compound CC(=O)OCC(OC(C)=O)C(OC(C)=O)C(OC(C)=O)C(=O)CNn1c(-c2ccc(C)cc2)nc2ccccc2c1=O (centres undefined) and give its recorded TGI.
Response: > 100 µM

Query: Consider the compound COc1ccc(/C=C2\COc3ccc(O)c(O)c3C2=O)cc1 and give its recorded TGI.
Response: 0.402 µM

Query: Consider the compound CCC1OC(=O)CC(O)C(C)C(OC2OC(C)C(O)C(N(C)C)C2O)C(CC=O)CC(C)C(=O)/C=C/C2(C)OC2C1C (centres undefined) and give its recorded TGI.
Response: 33 µM

Query: Consider the compound C=C(C)c1cc(C(C)(C)C)cc(C(=C)C)c1S(C)(=O)=O and give its recorded TGI.
Response: > 100 µM

Query: Consider the compound Cc1csc2nc(-c3ccncc3)cn12 and give its recorded TGI.
Response: > 100 µM
